- condition: 303.15 K; 101 kPa; Liquid; Oscillating disk viscometry
± gives the expanded uncertainty stated by the source.
property-measured: viscosity

Worked cases, viscosity given:
1. C[NH+](C)C.O=P([O-])(O)O [trimethylammonium dihydrogen phosphate] = 6.46 ± 0.44 mPa·s
2. CC(=O)[O-].C[NH+](C)C [trimethylammonium acetate] = 2.37 ± 0.16 mPa·s
3. C[NH+](C)C.O=S(=O)([O-])O [trimethylammonium hydrogen sulfate] = 4.48 ± 0.29 mPa·s

Enquiry: Quick one: viscosity of C[S+](C)[O-] [dimethyl sulfoxide] ?
Return: 1.8 ± 0.11 mPa·s

----------
- condition: 308.15 K; 101 kPa; Liquid; Vibrating tube method
± gives the expanded uncertainty stated by the source.
property-measured: mass density
Please answer in the form of a number followed by its unit of measurement.

Worked cases, mass density given:
1. C[NH+](C)C.O=S(=O)([O-])O [trimethylammonium hydrogen sulfate] = 1463.5 ± 1.2 kg/m3
2. C[NH+](C)C.O=P([O-])(O)O [trimethylammonium dihydrogen phosphate] = 1347.59 ± 1.1 kg/m3
3. C[S+](C)[O-] [dimethyl sulfoxide] = 1086.06 ± 1 kg/m3

Turning to the following compound.
Enquiry: Quick one: mass density of CC(=O)[O-].C[NH+](C)C [trimethylammonium acetate] ?
Return: 1045.81 ± 1 kg/m3

----------
- condition: 313.15 K; 101 kPa; Liquid; Vibrating tube method
Answer each item with its documented mass density.
Numbers only, in kg/m3.

Worked cases, mass density given:
1) C[NH+](C)C.O=P([O-])(O)O [trimethylammonium dihydrogen phosphate] = 1344.52
2) CC(=O)[O-].C[NH+](C)C [trimethylammonium acetate] = 1041.7
3) C[S+](C)[O-] [dimethyl sulfoxide] = 1081.43

Enquiry: Quick one: mass density of C[NH+](C)C.O=S(=O)([O-])O [trimethylammonium hydrogen sulfate] ?
Return: 1455.63

----------
Answer each item with its documented speed of sound.
- condition: 303.15 K; 101 kPa; Liquid; Frequency=2 MHz; Linear variable-path acoustic interferometer
Numbers only, in m/s.

Worked cases, speed of sound given:
1) CC(=O)[O-].C[NH+](C)C [trimethylammonium acetate] = 1514
2) C[NH+](C)C.O=P([O-])(O)O [trimethylammonium dihydrogen phosphate] = 1660
3) C[S+](C)[O-] [dimethyl sulfoxide] = 1472

Turning to the following compound.
Enquiry: Quick one: speed of sound of C[NH+](C)C.O=S(=O)([O-])O [trimethylammonium hydrogen sulfate] ?
Return: 1560

----------
- condition: 303.15 K; 101 kPa; Liquid; Vibrating tube method
property-measured: mass density (kg/m3)
Give bare numbers, in kg/m3.

1. C[S+](C)[O-] [dimethyl sulfoxide] = 1092.41

Respectfully, I request mass density for each entry included below.
1. C[NH+](C)C.O=S(=O)([O-])O [trimethylammonium hydrogen sulfate]
2. CC(=O)[O-].C[NH+](C)C [trimethylammonium acetate]
3. C[NH+](C)C.O=P([O-])(O)O [trimethylammonium dihydrogen phosphate]

Return:
1463.57
1049.87
1350.62

----------
- condition: 313.15 K; 101 kPa; Liquid; Oscillating disk viscometry
property-measured: viscosity (mPa·s)
Answers are plain numbers, in mPa·s.

Worked cases, viscosity given:
1) CC(=O)[O-].C[NH+](C)C [trimethylammonium acetate] = 1.83
2) C[S+](C)[O-] [dimethyl sulfoxide] = 1.54
3) C[NH+](C)C.O=S(=O)([O-])O [trimethylammonium hydrogen sulfate] = 3.16

Turning to the following compound.
Enquiry: Quick one: viscosity of C[NH+](C)C.O=P([O-])(O)O [trimethylammonium dihydrogen phosphate] ?
Return: 5.07
